Give EC50 for every item shown.
- measured.on: LXR beta (Homo sapiens)
- Construct: 5 μL of 4×LXR beta-LBD was added to each well (final concentration 5 nM)
- Sequence (P55055 222-460 limits assumed): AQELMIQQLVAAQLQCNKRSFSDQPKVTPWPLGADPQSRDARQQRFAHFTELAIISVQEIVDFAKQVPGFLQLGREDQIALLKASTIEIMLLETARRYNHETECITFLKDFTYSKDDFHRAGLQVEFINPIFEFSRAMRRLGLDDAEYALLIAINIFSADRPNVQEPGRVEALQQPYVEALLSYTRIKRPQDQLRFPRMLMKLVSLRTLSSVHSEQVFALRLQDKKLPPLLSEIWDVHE
- method: LXR beta agonist assay (Lanthascreen TR-FRET)
- assay.conditions: LXR beta-LBD 5 nM, read-out: LXR-β EC50

### Prompt For CN(C)C(=O)c1ccc(NC2CN(C3CCN(C(=O)[C@](O)(c4ccccc4)C(F)(F)F)CC3)C2)cc1Cl (single isomer, unassigned) , what is its reported EC50?
### Response > 30 µM

### Prompt Reported EC50 for "COc1ncc(Cl)cc1S(=O)(=O)N1CC=C(c2nnc(-c3ccc(C(=O)N(C)C)c(Cl)c3)s2)CC1" : what is it?
### Response > 10 µM

### Prompt Requested read-out: EC50. Entry: "COc1cccc(C2(C(=O)N3CC=C(c4nnc(-c5ccc(C(=O)N(C)C)c(Cl)c5)s4)CC3)CCCC2)c1"
### Response > 30 µM

### Prompt // query EC50 value for entry "CN(C)C(=O)c1ccc(NC2CN(C3CCN(C(=O)C45CC6CC(CC(C6)C4)C5)CC3)C2)cc1Cl"
### Response > 20.4 µM

Origin of measurements: patent US20220363662A1
